Molecular target: T1, recombinant human ErbB2/Fc chimera (human, UniProt P04626 23-652)
T1 construct: bought from R&D Systems; also called rhErbB2-Fc; rhErb2-Fc; Fc part of the bought chimera not given; not described
Experiment: ELISA, coated ErbB2/Fc
MEASURED_PARAMETER: binding result

>>> meas_value("22B41/1-124 (VHH, C-term myc-His6 tag) VHH: EVQLVESGGGLVQPGGSLRLSCTVFGRTFSGDVIGWFRQAPGKEREFVAAISTSGGGTDSADSVKGRFTISKENAKNTVYLQMTILKPEDTAVYYCASSPYGPLYRSTHYYDYWGQGTQVTVSS")
"binds"
>>> meas_value("13F42/1-111 (VHH, C-term myc-His6 tag) VHH: EVQLVESGGGLVQAGGSLRLSCVASGRTLSTTGVGWFRQAPGKGRESVATIFVGGTTYYSDSVKGRFTISRDNAKNAVNLQMSNLKPEDTALHYCTIGSYRGQGTQVTVSS")
"binds"
